The reader will find IC50 measurements below, all made with CYP2D6 (Homo sapiens).
Sequence (P10635 whole entry): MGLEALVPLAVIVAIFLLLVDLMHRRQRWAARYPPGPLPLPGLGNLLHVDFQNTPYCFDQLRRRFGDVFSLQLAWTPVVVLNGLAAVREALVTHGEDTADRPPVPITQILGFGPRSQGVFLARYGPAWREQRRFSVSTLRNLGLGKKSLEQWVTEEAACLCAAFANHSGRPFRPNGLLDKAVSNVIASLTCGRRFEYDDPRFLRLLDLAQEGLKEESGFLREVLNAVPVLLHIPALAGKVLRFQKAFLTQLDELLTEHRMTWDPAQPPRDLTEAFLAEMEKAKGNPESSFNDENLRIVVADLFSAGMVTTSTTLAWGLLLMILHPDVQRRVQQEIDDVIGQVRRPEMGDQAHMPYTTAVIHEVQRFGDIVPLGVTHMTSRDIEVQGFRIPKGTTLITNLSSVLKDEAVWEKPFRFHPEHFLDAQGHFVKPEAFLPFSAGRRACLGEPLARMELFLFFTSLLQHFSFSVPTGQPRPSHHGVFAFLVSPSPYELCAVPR
assay-endpoint: IC50 (µM)

compound: N#Cc1ccc(N2CCC[C@@H]2[C@@H](O)C(F)(F)F)cc1C(F)(F)F [VK5211, reference compound]
assay-endpoint: IC50
cmp: =
experimental-result: 7.67
//
compound: N#Cc1ccc(N2CC3CC3C2C(O)C(F)(F)F)cc1Cl (single isomer, unassigned) [Compound 3A]
assay-endpoint: IC50
cmp: >
experimental-result: 50

----------
experiment: Pharmacokinetic test in male SD rats, intravenous and intragastric administration, plasma LC-MS/MS; format: in vivo; conditions: rat, oral, intragastric vs intravenous administration, read-out: Bioavailability F
assay-endpoint: bioavailability

molecule: N#Cc1ncc(N2CC3CC3C2C(O)C(F)(F)F)cc1C(F)(F)F (single isomer, unassigned) [Compound 8A]
experimental-result: 41%
--
molecule: N#Cc1ccc(N2CC3CC3C2C(O)C(F)(F)F)cc1Cl (single isomer, unassigned) [Compound 3A]
experimental-result: 16%
--
molecule: N#Cc1ccc(N2CC3CC3C2C(O)C(F)(F)F)cc1C(F)(F)F (single isomer, unassigned) [Compound 1A]
experimental-result: 11%

----------
Documented pEC50 across a set of compounds
molecular target: androgen receptor (AR) (Homo sapiens); assay: Agonistic effect of test compounds on androgen receptor (AR), LiveBLAzer FRET reporter cell assay; type: cell-based; conditions: AR cells, 16 hours incubation, 10 concentrations; read-out: EC50, agonist activity on androgen receptor
Sequence (P10275 whole entry): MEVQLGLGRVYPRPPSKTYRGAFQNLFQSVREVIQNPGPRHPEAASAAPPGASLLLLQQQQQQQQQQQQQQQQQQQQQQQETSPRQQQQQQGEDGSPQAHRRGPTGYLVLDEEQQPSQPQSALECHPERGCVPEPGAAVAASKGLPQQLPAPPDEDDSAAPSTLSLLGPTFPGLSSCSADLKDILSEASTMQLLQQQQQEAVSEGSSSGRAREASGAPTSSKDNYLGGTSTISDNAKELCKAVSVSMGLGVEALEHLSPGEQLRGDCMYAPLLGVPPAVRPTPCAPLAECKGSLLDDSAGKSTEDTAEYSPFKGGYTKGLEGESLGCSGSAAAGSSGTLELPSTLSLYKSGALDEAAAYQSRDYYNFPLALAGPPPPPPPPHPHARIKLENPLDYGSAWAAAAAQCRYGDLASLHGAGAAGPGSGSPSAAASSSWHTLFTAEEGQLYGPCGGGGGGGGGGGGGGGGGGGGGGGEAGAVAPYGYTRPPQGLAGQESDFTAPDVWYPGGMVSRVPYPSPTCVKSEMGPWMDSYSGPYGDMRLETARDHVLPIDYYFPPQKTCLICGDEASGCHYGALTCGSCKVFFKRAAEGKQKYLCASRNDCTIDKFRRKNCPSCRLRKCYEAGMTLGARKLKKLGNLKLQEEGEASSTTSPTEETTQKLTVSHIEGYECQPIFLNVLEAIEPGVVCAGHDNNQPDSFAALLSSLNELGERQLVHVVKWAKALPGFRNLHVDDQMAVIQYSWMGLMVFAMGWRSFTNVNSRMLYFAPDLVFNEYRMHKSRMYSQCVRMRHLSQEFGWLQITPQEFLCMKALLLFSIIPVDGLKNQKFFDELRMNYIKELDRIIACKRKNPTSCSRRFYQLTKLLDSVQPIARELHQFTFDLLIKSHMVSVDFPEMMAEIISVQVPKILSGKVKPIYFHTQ
pEC50: −log10 of the molar value.

compound: N#Cc1ncc(N2CC3C(C2C(O)C(F)(F)F)C3(F)F)cc1C(F)(F)F (stereo not drawn) [Mixture of compounds 12A and 12B]
pEC50: 8.20
//
compound: N#Cc1cc(N2CC3CC3C2C(O)C(F)(F)F)cc(F)c1C#N (stereo not drawn) [Mixture of compounds 6A and 6B]
pEC50: 8.37
//
compound: COc1cc(N2CC3CC3C2C(O)C(F)(F)F)cnc1C#N (single isomer, unassigned) [Compound 11A]
pEC50: 6.87
//
compound: N#Cc1ncc(N2CC3CC3C2C(O)C(F)(F)F)cc1Cl (single isomer, unassigned) [Compound 10A]
pEC50: 7.25
//
compound: N#Cc1ncc(N2CC3CC3C2C(O)C(F)(F)F)cc1C(F)(F)F (single isomer, unassigned) [Compound 8A]
pEC50: 8.49
//
compound: N#Cc1ncc(N2CC3CC3C2C(O)C(F)(F)F)cc1OC(F)F (single isomer, unassigned) [Compound 9A]
pEC50: 7.32

----------
Below is a list of entries, each paired with its recorded clearance value.
assay: Pharmacokinetic test in male SD rats, intravenous and intragastric administration, plasma LC-MS/MS; format: in vivo; conditions: rat, intravenous administration, dose 1.1 (1A), 0.69 (3A), 0.716 (8A) mg/kg, read-out: Clearance rate Cl
assay-endpoint: clearance

compound: N#Cc1ncc(N2CC3CC3C2C(O)C(F)(F)F)cc1C(F)(F)F (single isomer, unassigned) [Compound 8A]
experimental-result: 6.99 mL/min/kg

compound: N#Cc1ccc(N2CC3CC3C2C(O)C(F)(F)F)cc1C(F)(F)F (single isomer, unassigned) [Compound 1A]
experimental-result: 20.6 mL/min/kg

compound: N#Cc1ccc(N2CC3CC3C2C(O)C(F)(F)F)cc1Cl (single isomer, unassigned) [Compound 3A]
experimental-result: 28.6 mL/min/kg

----------
Test: Pharmacokinetic test in male SD rats, intravenous and intragastric administration, plasma LC-MS/MS
Format: in vivo
Conditions: rat, po, intragastric administration, dose 4.92 (1A), 4.2 (3A), 4.59 (8A) mg/kg, read-out: Half-life T1/2 (converted)
Description: Experimental Embodiment 2: Pharmacokinetic Test of the Compounds of the Present Disclosure […] The content of the test compounds in the plasma of rats after intravenous and intragastric administration was determined by LC-MS/MS method. The linear range of the method was 2.00-6000 nmol/L; plasma samples were analyzed after acetonitrile precipitation protein treatment.

compound: N#Cc1ncc(N2CC3CC3C2C(O)C(F)(F)F)cc1C(F)(F)F (single isomer, unassigned) [Compound 8A]
half-life / h: 3.69
//
compound: N#Cc1ccc(N2CC3CC3C2C(O)C(F)(F)F)cc1Cl (single isomer, unassigned) [Compound 3A]
half-life / h: 1.8
